test: amyloid nucleation score (Sup35N fusion, yeast selection) (log enrichment); library NNK3; higher = more nucleation; inactive = no reads after selection;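 further: zero at mode of non-aggregating sequences after 7 days selection at 30°C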
measurementKind: amyloid nucleation score

Examples with their reported amyloid nucleation score follow.
substance: LLVSACA
amyloid nucleation score: inactive

substance: SRKALVYGSVKRLSIMSAWV
amyloid nucleation score: -0.626

substance: VYSGESNQIYIMNWPVTSKQ
amyloid nucleation score: 0.062

substance: ADVDCFTVNLVYSRYAFVTT
amyloid nucleation score: inactive

substance: NRENFMVTLLSLWTCNTCQV
amyloid nucleation score: 2.46

Quick note, amyloid nucleation score for `YRRAREWGNDDFLNG` landed at 0.785

Quick note, amyloid nucleation score for `TNTSFTIVSYTSYR` landed at 0.696
